Target Desc: BAF3 FL KIT EX11DEL/D816H (Homo sapiens, UniProt P10721, D816H, cells depend on it, form not given)
Construct: "BAF3 FL KIT EX11DEL/ D816H"
Sequence (P10721 with tags, fused parts or gaps DEL557-558/D816H, form open): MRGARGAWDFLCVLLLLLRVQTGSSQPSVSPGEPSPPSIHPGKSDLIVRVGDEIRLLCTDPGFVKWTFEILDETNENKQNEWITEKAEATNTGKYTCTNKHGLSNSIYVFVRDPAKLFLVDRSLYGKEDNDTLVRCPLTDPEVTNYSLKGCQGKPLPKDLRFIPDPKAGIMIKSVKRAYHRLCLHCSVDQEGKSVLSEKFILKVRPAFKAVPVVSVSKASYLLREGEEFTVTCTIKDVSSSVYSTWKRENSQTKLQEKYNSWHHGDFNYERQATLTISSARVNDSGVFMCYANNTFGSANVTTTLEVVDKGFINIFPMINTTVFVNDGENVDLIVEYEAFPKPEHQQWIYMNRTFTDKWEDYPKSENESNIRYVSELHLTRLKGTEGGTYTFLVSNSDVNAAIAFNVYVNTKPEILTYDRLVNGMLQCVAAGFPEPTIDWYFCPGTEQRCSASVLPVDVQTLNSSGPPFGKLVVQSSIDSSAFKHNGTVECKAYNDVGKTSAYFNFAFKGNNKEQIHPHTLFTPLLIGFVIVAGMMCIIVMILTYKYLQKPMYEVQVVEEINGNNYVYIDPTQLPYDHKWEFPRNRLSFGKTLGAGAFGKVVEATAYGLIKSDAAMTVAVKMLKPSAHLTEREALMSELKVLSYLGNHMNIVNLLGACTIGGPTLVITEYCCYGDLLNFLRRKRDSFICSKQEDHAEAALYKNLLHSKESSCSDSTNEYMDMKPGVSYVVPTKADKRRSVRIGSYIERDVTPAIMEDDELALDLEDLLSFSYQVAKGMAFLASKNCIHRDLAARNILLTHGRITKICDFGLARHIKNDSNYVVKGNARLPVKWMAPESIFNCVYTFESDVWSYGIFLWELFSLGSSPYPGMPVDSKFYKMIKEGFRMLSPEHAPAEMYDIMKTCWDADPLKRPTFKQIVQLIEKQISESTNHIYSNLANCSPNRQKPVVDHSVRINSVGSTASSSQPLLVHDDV
Measurement Notes: c-Kit assay: Ba/F3 KIT mutant viability (Cell Titer-Glo, 72 hours)
Assay type: cell-based
Measurement Conditions: viability after 72 hours
As shown below, each of these compounds has a reported GI50 value.
Measurement Label: GI50

compound_string=Cc1ccc(C(=O)Nc2cc(C(F)(F)F)ccn2)cc1C#Cc1ccc2c(c1)ncn2CCCN(C)C measurement_label=GI50 val="100 to 10000 nM"
compound_string=Cc1ccc(C(=O)Nc2cc(C(F)(F)F)ccn2)cc1C#Cc1ccc2c(c1)ncn2C1CCN(C)CC1 measurement_label=GI50 val="100 to 10000 nM"
compound_string=Cc1ccc(C(=O)Nc2cc(C(F)(F)F)ccn2)cc1C#Cc1ccc2[nH]cnc2c1 measurement_label=GI50 val="50 to 100 nM"
compound_string=COCCn1cnc2cc(C#Cc3cc(C(=O)Nc4cc(C(F)(F)F)ccn4)ccc3C)ccc21 measurement_label=GI50 val="100 to 10000 nM"
compound_string=Cc1ccc(NC(=O)c2cc(C(F)(F)F)ccn2)cc1C#Cc1ccc2c(c1)ncn2-c1cnn(C)c1 measurement_label=GI50 val="10 to 50 nM"
compound_string=Cc1ccc(C(=O)Nc2cc(C(F)(F)F)ccn2)cc1C#Cc1ccc2c(c1)ncn2-c1cnn(C2CCOCC2)c1 measurement_label=GI50 val="10 to 50 nM"

====

Measured GI50 of individual entries
Target Desc: BAF3 FL KIT EX11DEL/V654A (Homo sapiens, UniProt P10721, V654A, cells depend on it, form not given)
Construct: "BAF3 FL KIT EX11DEL/ V654A"
Sequence (P10721 with tags, fused parts or gaps DEL557-558/V654A, form open): as the sequence (P10721 with tags, fused parts or gaps DEL557-558/D816H, form open) above, with V652A, H814D counted along it
Measurement Notes: c-Kit assay: Ba/F3 KIT mutant viability (Cell Titer-Glo, 72 hours)
Format: cell-based
Measurement Conditions: viability after 72 hours
Measurement Label: GI50

compound=Cn1cc(-n2cnc3cc(C#Cc4cccc(NC(=O)c5cc(C(F)(F)F)ccn5)c4)ccc32)cn1 val="50 to 100 nM"
compound="Cc1ccc(C(=O)Nc2cc(C(F)(F)F)ccn2)cc1C#Cc1ccc2c(c1)ncn2-c1cnn(C)c1 [Compound I-19]" val="10 to 50 nM"
compound=Cc1ccc(NC(=O)c2ccc(CN3CCN(C)CC3)c(C(F)(F)F)c2)cc1C#Cc1ccc2c(c1)ncn2-c1cnn(C)c1 val="100 to 10000 nM"
compound=Cc1ccc(C(=O)Nc2cc(C(F)(F)F)ccn2)cc1C#Cc1ccc2c(c1)ncn2C1CC1 val="100 to 10000 nM"
compound=Cc1ccc(C(=O)Nc2cc(C(F)(F)F)ccn2)cc1C#Cc1ccc2c(c1)ncn2-c1cn(C2CCN(C)CC2)cn1 val="100 to 10000 nM"
compound=Cc1ccc(C(=O)Nc2cc(C(F)(F)F)ccn2)cc1C#Cc1ccc2c(c1)ncn2-c1cnn(C2CCNCC2)c1 val="10 to 50 nM"
compound=Cc1ccc(NC(=O)c2ccc(CN3CCOCC3)c(C(F)(F)F)c2)cc1C#Cc1ccc2c(c1)ncn2-c1cnn(C)c1 val="50 to 100 nM"
compound=Cc1ccc(C(=O)Nc2cccc(C3CC3)c2)cc1C#Cc1ccc2c(c1)ncn2-c1cnn(C)c1 val="50 to 100 nM"
compound=Cc1ccc(C(=O)Nc2cc(C(F)(F)F)ccn2)cc1C#Cc1ccc2c(c1)ncn2CCN(C)C val="100 to 10000 nM"
compound=Cc1ccc(NC(=O)c2cc(C(F)(F)F)ccn2)cc1C#Cc1ccc2c(c1)ncn2-c1cnn(CCN(C)C)c1 val="50 to 100 nM"
compound=Cc1ccc(C(=O)Nc2cc(C(F)(F)F)ccn2)cc1C#Cc1ccc2c(c1)ncn2-c1cnn(C2CCOCC2)c1 val="10 to 50 nM"
compound=CNC(=O)Cn1cnc2cc(C#Cc3cc(C(=O)Nc4cc(C(F)(F)F)ccn4)ccc3C)ccc21 val="100 to 10000 nM"
compound=Cc1ccc(C(=O)Nc2cc(C(F)(F)F)ccn2)cc1C#Cc1ccc2c(c1)ncn2-c1cnn(CCO)c1 val="10 to 50 nM"
compound=Cc1ccc(C(=O)Nc2ccc(CN3CCCC3)c(C(F)(F)F)c2)cc1C#Cc1ccc2c(c1)ncn2C val="50 to 100 nM"
compound=Cc1ccc(NC(=O)c2cc(C(F)(F)F)ccn2)cc1C#Cc1ccc2c(c1)ncn2-c1cnn(C)c1 val="10 to 50 nM"
compound=Cc1ccc(NC(=O)c2cc(C(F)(F)F)ccn2)cc1C#Cc1ccc2c(c1)ncn2-c1cn(C)nn1 val="10 to 50 nM"
compound=Cc1ccc(C(=O)Nc2cc(C(F)(F)F)ccn2)cc1C#Cc1ccc2nc(N)[nH]c2c1 val="100 to 10000 nM"
compound=Cc1ccc(C(=O)Nc2cc(C(F)(F)F)ccn2)cc1C#Cc1ccc2ncn(C)c2c1 val="100 to 10000 nM"
compound=Cc1ccc(C(=O)Nc2cc(C(F)(F)F)ccn2)cc1C#Cc1ccc2[nH]cnc2c1 val="10 to 50 nM"
compound=Cc1ccc(C(=O)Nc2cc(C(F)(F)F)ccn2)cc1C#Cc1ccc2c(c1)ncn2-c1cnn(C2CCN(C=O)CC2)c1 val="10 to 50 nM"
compound=Cc1ccc(C(=O)Nc2cc(C(F)(F)F)ccn2)cc1C#Cc1ccc2c(c1)ncn2-c1ccccc1 val="100 to 10000 nM"
compound=Cc1ccc(C(=O)Nc2ccc(N3CCN(C)CC3)c(C(F)(F)F)c2)cc1C#Cc1ccc2c(c1)ncn2C val="100 to 10000 nM"
